test system: Staphylococcus aureus; assay: Antimicrobial activity against methicillin-resistant Staphylococcus aureus OIT971 by micro broth dilution or agar based method; assay type: functional
endpoint_label: log10 MIC (log10 of the value in µg/mL)
Values reflect log10 of reported MIC (µg/mL).

In the examples that follow, each entry is paired with its recorded log10 MIC.
[[record]]
compound = "COc1cc(C)c2nccc(CCC34CCC(NCc5ccc6c(n5)NC(=O)CO6)(CC3)CO4)c2n1"
observed_result = -1.20

[[record]]
compound = "COc1cc(CCC23CCC(NCc4ccc5c(n4)NC(=O)CO5)(CC2)CO3)c2nc(OC)ccc2n1"
observed_result = 0.00

[[record]]
compound = "COc1ccc2ncc(O)c(CCC34CCC(NCc5ccc6c(n5)NC(=O)CO6)(CC3)CO4)c2n1"
observed_result = -1.51

[[record]]
compound = "COc1cc2nccc(CCC34CCC(NCc5ccc6c(n5)NC(=O)CO6)(CC3)CO4)c2nc1OC"
observed_result = 0.00

[[record]]
compound = "COc1nc2c(CCC34CCC(NCc5ccc6c(n5)NC(=O)CO6)(CC3)CO4)ccnc2cc1C#N"
observed_result = 0.30

[[record]]
compound = "N#Cc1ccc2ncc(F)c(CCC34CCC(NCc5ccc6c(n5)NC(=O)CO6)(CC3)CO4)c2n1"
observed_result = -1.20

[[record]]
compound = "COc1cnc2c(CCC34CCC(NCc5ccc6c(n5)NC(=O)CO6)(CC3)CO4)ccnc2c1"
observed_result = 0.90


Would you kindly look at the next entry?
Provide log10 MIC, system Staphylococcus aureus, entry COc1ccc2ncc(C#N)c(CC(O)C34CCC(NCc5ccc6c(n5)NC(=O)CO6)(CC3)CO4)c2n1 (stereo in doubt; 88)
-1.51

----------
tested on: Staphylococcus aureus; test: Antimicrobial activity against Staphylococcus aureus Smith by micro broth dilution or agar based method; format: functional; conditions: Staphylococcus aureus, Smith; read-out: MIC
endpoint_label: log10 MIC (log10 of the value in µg/mL)
In our notation, the value equals log10 of MIC in µg/mL.

Worked cases, log10 MIC given:
[[record]]
smiles_notation = "COc1cc2nccc(CCC34CCC(NCc5ccc6c(n5)NC(=O)CO6)(CC3)CO4)c2nc1C#N"
assayed_system = "Staphylococcus aureus"
endpoint_label = "log10 MIC"
observed_result = 0.90

[[record]]
smiles_notation = "O=C1COc2ccc(CNC34CCC(CCc5ccnc6cc(C(F)(F)F)cnc56)(CC3)OC4)nc2N1"
assayed_system = "Staphylococcus aureus"
endpoint_label = "log10 MIC"
observed_result = 1.81

[[record]]
smiles_notation = "COc1cc2ncc(F)c(CCC34CCC(NCc5ccc6c(n5)NC(=O)CO6)(CC3)CO4)c2nc1OC"
assayed_system = "Staphylococcus aureus"
endpoint_label = "log10 MIC"
observed_result = -0.30

[[record]]
smiles_notation = "COc1ccc2ncc(C#N)c(CCC34CCC(NCc5ccc6c(n5)NC(=O)CO6)(CC3)CO4)c2n1"
assayed_system = "Staphylococcus aureus"
endpoint_label = "log10 MIC"
observed_result = -1.80

[[record]]
smiles_notation = "COc1ccc2ncc(F)c(C[C@H](O)C34CCC(NCc5ccc6c(n5)NC(=O)CO6)(CC3)CO4)c2n1"
assayed_system = "Staphylococcus aureus"
endpoint_label = "log10 MIC"
observed_result = -1.70

[[record]]
smiles_notation = "O=C1COc2ccc(CNC34CCC(CCc5c(F)cnc6ccc(N7CCS(=O)(=O)CC7)nc56)(CC3)OC4)nc2N1"
assayed_system = "Staphylococcus aureus"
endpoint_label = "log10 MIC"
observed_result = 0.00

[[record]]
smiles_notation = "O=C1COc2ccc(CNC34CCC(CCc5ccnc6cc(F)cnc56)(CC3)OC4)nc2N1"
assayed_system = "Staphylococcus aureus"
endpoint_label = "log10 MIC"
observed_result = 1.20

[[record]]
smiles_notation = "O=C1COc2ccc(CNC34CCC(CCc5c(F)cnc6ccc(C(=O)O)nc56)(CC3)OC4)nc2N1"
assayed_system = "Staphylococcus aureus"
endpoint_label = "log10 MIC"
observed_result = 1.20


Consider the compound `O=C1COc2ccc(CNC34CCC(CCc5c(F)cnc6cc(Cl)cnc56)(CC3)OC4)nc2N1` . State its measured log10 MIC.
0.90

Look up and report measured log10 MIC for this entry: `O=C1COc2ccc(CNC34CCC(CCc5c(F)cnc6ccc(N7CCOCC7)nc56)(CC3)OC4)nc2N1`
-0.30

Complete the entry with log10 MIC for `COC(=O)c1ccc2ncc(F)c(CCC34CCC(NCc5ccc6c(n5)NC(=O)CO6)(CC3)CO4)c2n1`
-1.20

For `COc1ccc2ncc(C(F)(F)F)c(CCC34CCC(NCc5ccc6c(n5)NC(=O)CO6)(CC3)CO4)c2n1` , write its log10 MIC.
-1.52

Specify measured log10 MIC for `COc1ccc2ncc(C(F)F)c(CCC34CCC(NCc5ccc6c(n5)NC(=O)CO6)(CC3)CO4)c2n1` .
-1.52

Annotate the compound `Cc1cc(C#N)nc2c(CCC34CCC(NCc5ccc6c(n5)NC(=O)CO6)(CC3)CO4)ccnc12` with its measured log10 MIC.
0.00

Report log10 MIC, nothing else, for this compound: `O=C1COc2ccc(CNC34CCC(CCc5ccnc6ccc(C(F)(F)F)nc56)(CC3)OC4)nc2N1`
0.30

For the compound `COc1ccc2ncc(Cl)c(CCC34CCC(NCc5ccc6c(n5)NC(=O)CO6)(CC3)CO4)c2n1` , give its measured log10 MIC value.
-2.10

Annotate the compound `Cc1cc(S(C)(=O)=O)nc2c(CCC34CCC(NCc5ccc6c(n5)NC(=O)CO6)(CC3)CO4)ccnc12` with its measured log10 MIC.
0.00

Check the records and state log10 MIC for `COc1cnc2c(CCC34CCC(NCc5ccc6c(n5)NC(=O)CO6)(CC3)CO4)ccnc2c1`
1.51

Specify reported log10 MIC for the compound shown: `CCOC(=O)c1c(OC)cnc2c(CCC34CCC(NCc5ccc6c(n5)NC(=O)CO6)(CC3)CO4)ccnc12`
1.20

Just for reference, ChEMBL document CHEMBL3421558 is where these values come from.
